TEST_SYSTEM: CD28 (Homo sapiens, UniProt P10747)
PROCEDURE_SUMMARY: Jurkat/IL2 reporter assay: blockade of CD28 costimulation (plate-bound anti-CD3/CD86-Fc)
Assay type: cell-based
Parameters: host or cells: Jurkat cells expressing an IL-2-luciferase reporter
ASSAY_CONDITIONS: Table E5; protein diluted to 40 nM before mixing with cells; 5 hours
QUANTITY_KIND: Average Relative Luminescence Units

Dear colleague, could you please provide Average Relative Luminescence Units for the molecules listed below?
1. E23G/A26S/E35D/T62N/A71D/L72V/L85M: variant CD80 IgV-Fc, IgV SEQ ID NO:216 (protein) VIHVTKEVKEVATLSCGHNVSVGELSQTRIYWQKDKKMVLTMMSGDMNIWPEYKNRTIFDINNNLSIVILDVRPSDEGTYECVVMKYEKDAFKREHLAEVTLSVKAD
2. E35D/I67L/A71D: variant CD80 IgV-Fc, IgV SEQ ID NO:195 (protein) VIHVTKEVKEVATLSCGHNVSVEELAQTRIYWQKDKKMVLTMMSGDMNIWPEYKNRTIFDITNNLSLVILDLRPSDEGTYECVVLKYEKDAFKREHLAEVTLSVKAD

OUTPUT:
["2067 Relative Luminescence Units", "1223 Relative Luminescence Units"]

Dear colleague, could you please provide Average Relative Luminescence Units for the molecules listed below?
1. K36R/G78A: variant CD80 IgV-Fc, IgV SEQ ID NO:178 (protein) VIHVTKEVKEVATLSCGHNVSVEELAQTRIYWQKERKMVLTMMSGDMNIWPEYKNRTIFDITNNLSIVILALRPSDEATYECVVLKYEKDAFKREHLAEVTLSVKAD
2. A71D/L72V/E95K: variant CD80 IgV-Fc, IgV SEQ ID NO:192 (protein) VIHVTKEVKEVATLSCGHNVSVEELAQTRIYWQKEKKMVLTMMSGDMNIWPEYKNRTIFDITNNLSIVILDVRPSDEGTYECVVLKYEKDAFKRKHLAEVTLSVKAD
3. E35D/I57I/L70Q/A71D: variant CD80 IgV-Fc, IgV SEQ ID NO:185 (protein) VIHVTKEVKEVATLSCGHNVSVEELAQTRIYWQKDKKMVLTMMSGDMNIWPEYKNRIIFDITNNLSIVIQDLRPSDEGTYECVVLKYEKDAFKREHLAEVTLSVKAD
4. I30V/T57I/L70P/A71D/A91T: variant CD80 IgV-Fc, IgV SEQ ID NO:159 (protein) VIHVTKEVKEVATLSCGHNVSVEELAQTRVYWQKEKKMVLTMMSGDMNIWPEYKNRIIFDITNNLSIVIPDLRPSDEGTYECVVLKYEKDTFKREHLAEVTLSVKAD
5. T41S/T57I/L70R: variant CD80 IgV-Fc, IgV SEQ ID NO:213 (protein) VIHVTKEVKEVATLSCGHNVSVEELAQTRIYWQKEKKMVLSMMSGDMNIWPEYKNRIIFDITNNLSIVIRALRPSDEGTYECVVLKYEKDAFKREHLAEVTLSVKAD
6. Q33E/T41A: variant CD80 IgV-Fc, IgV SEQ ID NO:179 (protein) VIHVTKEVKEVATLSCGHNVSVEELAQTRIYWEKEKKMVLAMMSGDMNIWPEYKNRTIFDITNNLSIVILALRPSDEGTYECVVLKYEKDAFKREHLAEVTLSVKAD
7. V20I/M47V/A71D: variant CD80 IgV-Fc, IgV SEQ ID NO:191 (protein) VIHVTKEVKEVATLSCGHNISVEELAQTRIYWQKEKKMVLTMMSGDVNIWPEYKNRTIFDITNNLSIVILDLRPSDEGTYECVVLKYEKDAFKREHLAEVTLSVKAD

OUTPUT:
1: 2597 Relative Luminescence Units; 2: 2939 Relative Luminescence Units; 3: 280 Relative Luminescence Units; 4: 1731 Relative Luminescence Units; 5: 3641 Relative Luminescence Units; 6: 4220 Relative Luminescence Units; 7: 360 Relative Luminescence Units

Dear colleague, could you please provide Average Relative Luminescence Units for the molecules listed below?
1. A26P/E35D/M43I/L85Q/E88D: variant CD80 IgV-Fc, IgV SEQ ID NO:202 (protein) VIHVTKEVKEVATLSCGHNVSVEELPQTRIYWQKDKKMVLTMISGDMNIWPEYKNRTIFDITNNLSIVILALRPSDEGTYECVVQKYDKDAFKREHLAEVTLSVKAD
2. Q27H/E35G/A71D/L72P/T791: variant CD80 IgV-Fc, IgV SEQ ID NO:196 (protein) VIHVTKEVKEVATLSCGHNVSVEELAHTRIYWQKGKKMVLTMMSGDMNIWPEYKNRTIFDITNNLSIVILDPRPSDEGIYECVVLKYEKDAFKREHLAEVTLSVKAD
3. E23D/M42V/M43I/I58V/L70R: variant CD80 IgV-Fc, IgV SEQ ID NO:209 (protein) VIHVTKEVKEVATLSCGHNVSVDELAQTRIYWQKEKKMVLTVISGDMNIWPEYKNRTVFDITNNLSIVIRALRPSDEGTYECVVLKYEKDAFKREHLAEVTLSVKAD
4. M47V/N48H: variant CD80 IgV-Fc, IgV SEQ ID NO:180 (protein) VIHVTKEVKEVATLSCGHNVSVEELAQTRIYWQKEKKMVLTMMSGDVHIWPEYKNRTIFDITNNLSIVILALRPSDEGTYECVVLKYEKDAFKREHLAEVTLSVKAD

OUTPUT:
1. 4078 Relative Luminescence Units
2. 2000 Relative Luminescence Units
3. 4460 Relative Luminescence Units
4. 2656 Relative Luminescence Units
